pIC50: −log10 of the molar value.
Hi! I'm sharing some pIC50 results obtained with TNF-α converting enzyme (TACE) (Homo sapiens).
Sequence (P78536 215-824): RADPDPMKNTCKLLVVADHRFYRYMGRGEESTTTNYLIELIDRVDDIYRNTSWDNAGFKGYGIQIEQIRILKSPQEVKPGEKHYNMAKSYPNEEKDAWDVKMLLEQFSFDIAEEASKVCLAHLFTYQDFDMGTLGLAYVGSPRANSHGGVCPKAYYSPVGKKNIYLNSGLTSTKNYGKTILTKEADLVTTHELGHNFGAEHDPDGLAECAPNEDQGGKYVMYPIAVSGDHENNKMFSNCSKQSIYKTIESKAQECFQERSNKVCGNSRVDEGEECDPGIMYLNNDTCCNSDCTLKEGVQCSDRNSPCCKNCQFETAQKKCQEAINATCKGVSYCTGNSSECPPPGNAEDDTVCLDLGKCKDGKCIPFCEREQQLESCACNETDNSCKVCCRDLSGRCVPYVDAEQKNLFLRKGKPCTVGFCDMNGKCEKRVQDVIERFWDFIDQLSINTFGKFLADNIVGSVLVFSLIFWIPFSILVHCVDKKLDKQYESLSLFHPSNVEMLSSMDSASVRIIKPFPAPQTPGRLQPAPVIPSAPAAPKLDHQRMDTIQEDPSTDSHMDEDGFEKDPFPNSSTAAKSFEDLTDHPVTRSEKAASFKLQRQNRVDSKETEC
parameter: pIC50

I: CC#CCOc1ccc(S(=O)(=O)C2(C(=O)NO)CCN(C(=O)c3cccs3)CC2)cc1 [Example 71]
II: CCC#CCOc1ccc(S(=O)(=O)C2(C(=O)NO)CCN(Cc3ccc(Br)cc3)CC2)cc1 [Example 5]
Quick check, higher pIC50 between I and II ? State your choice using its label.
I

---

Counter-ions that a name gives are not always drawn.
The next entries give measured IC50 for TNF-α converting enzyme (TACE) (Homo sapiens, UniProt P78536).
parameter: IC50 (nM)

Some solved cases for reference:
compound	parameter	result_value
CC#CCOc1ccc(S(=O)(=O)C2(C(=O)NO)CCN(Cc3ccccc3)CC2)cc1 [Example 4]	IC50	90
CC#CCOc1ccc(S(=O)(=O)C2(C(=O)NO)CCN(C(=O)C(C)(CO)CO)CC2)cc1 [Example 74]	IC50	132
CC#CCOc1ccc([S+]([O-])C2(C(=O)NO)CCN(Cc3ccc(Br)cc3)CC2)cc1 (stereo not drawn) [Example 82, hydrochloride]	IC50	135
CC#CCOc1ccc(S(=O)(=O)C2(C(=O)NO)CCN(Cc3ccc(OC)cc3)CC2)cc1 [Example 2]	IC50	82
CC#CCOc1ccc(S(=O)(=O)C2(C(=O)NO)CCN(Cc3ccc(C(=O)OC)cc3)CC2)cc1 [Example 77, hydrochloride]	IC50	114

P: CC#CCOc1ccc([S+]([O-])C2(C(=O)NO)CCN(C(=O)OC(C)(C)C)CC2)cc1 (stereo not drawn) [Example 80]
Q: CC#CCOc1ccc(S(=O)(=O)CC2(C(=O)NO)CCN(CC#CC)CC2)cc1 [Example 37, hydrochloride]
Please indicate which entry, P or Q , has the lower recorded IC50 value. Your answer should be the label attached to the chosen record.
Q

a: CC#CCOc1ccc(S(=O)(=O)CC2(C(=O)NO)CCN(C(=O)OC)CC2)cc1 [Example 39]
b: CC#CCOc1ccc(S(=O)(=O)C2(C(=O)NO)CCN(Cc3ccc(C(=O)O)cc3)CC2)cc1 [Example 78, hydrochloride]
Among a and b , which shows a numerically higher IC50 result? Your answer should be the label attached to the chosen record.
b
